Target: HoblOBP4 (Holotrichia oblita, UniProt G9BWQ8)
Sequence (G9BWQ8 entry or part of it): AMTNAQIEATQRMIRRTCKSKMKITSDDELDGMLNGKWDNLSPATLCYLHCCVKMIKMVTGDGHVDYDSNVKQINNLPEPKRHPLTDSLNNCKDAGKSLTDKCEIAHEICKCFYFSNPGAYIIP
Experiment: biochemical
Assay type: binding
Conditions: HoblOBP4; dash = ligand whose IC50 exceeded 50 µM, Ki not given; read-out: Ki (dash)
pKi: −log10 of the molar value.
Parameter: pKi

Query string: I would be grateful if you could share the reported pKi for `O=CCc1ccccc1` .
Result string: < 4.30

Query string: So what's the measured pKi for this one? `CC1=C(/C=C/C(C)=C/C=C/C(C)=C/CO)C(C)(C)CCC1`
Result string: < 4.30

Query string: What value of pKi has been recorded for this entry: `CCCCCCCCC`
Result string: < 4.30

Query string: Quick one: pKi of CC(C)[C@@H]1CC[C@@H](C)C[C@H]1OC(=O)c1ccccc1O [Menthyl salicylate] ?
Result string: < 4.30

Query string: Would you mind telling me what pKi value was observed for `CCCCCCCCCC=O` ?
Result string: < 4.30

Query string: Entry under review: `CCCCCCCCCC` . Reported pKi?
Result string: < 4.30

Query string: Entry under review: `C=CC(=C)CCC=C(C)C` . Reported pKi?
Result string: < 4.30

Query string: Query: pKi; subject: `CCCCCCC=O`
Result string: < 4.30

###

Consider the following compounds; for each one, report its pIC50.
Biological target: HoblOBP3 (Holotrichia oblita, UniProt G9BWQ7)
Sequence (G9BWQ7 entry or part of it): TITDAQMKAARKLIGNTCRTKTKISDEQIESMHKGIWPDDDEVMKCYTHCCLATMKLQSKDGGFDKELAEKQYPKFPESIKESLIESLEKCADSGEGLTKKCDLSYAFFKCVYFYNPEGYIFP
Assay: biochemical
Format: binding
pIC50: −log10 of the molar value.

Query string: Reported pIC50 for C=C(C)C1CC=C(C)CC1 (stereo not drawn) : what is it?
Result string: < 4.30

Query string: Item under review: CC(=O)/C=C/C1C(C)=CCCC1(C)C (stereo not drawn) . Reported pIC50?
Result string: 4.80

Query string: Suppose we examine the compound `C=C1CC/C=C(\C)CC[C@@H]2[C@@H]1CC2(C)C` ; what pIC50 value has been reported?
Result string: < 4.30

Query string: What value of measured pIC50 is listed for CCC/C=C/C=O [trans-2-Hexenal] ?
Result string: < 4.30

Query string: Give its pIC50 value. Item: `CCCCCCC`
Result string: < 4.30

Query string: Please report the recorded pIC50 for `O=Cc1ccccc1` .
Result string: < 4.30

Query string: pIC50 for CC/C=C\CCO [cis-3-Hexen-1-ol] ?
Result string: < 4.30

Query string: For `CC(=O)/C=C/C1=C(C)CCCC1(C)C` , what is its reported pIC50?
Result string: 5.10

Query string: Entry CCC/C=C\CO [cis-2-Hexen-1-ol] has what pIC50?
Result string: < 4.30

###

Target: HoblOBP4 (Holotrichia oblita)
Assay: biochemical
Format: binding
Parameter: Ki

Query string: Please give the measured Ki for this molecule: `C=C1CC/C=C(\C)CC[C@@H]2[C@@H]1CC2(C)C`
Result string: > 50 µM

Query string: For the molecule shown here, C=C(C)C1CC=C(C)CC1 (stereo not drawn) , give the reported Ki.
Result string: > 50 µM

Query string: Consider the molecule shown here: `C=CCc1ccc(O)c(OC)c1` What is its recorded Ki?
Result string: > 50 µM

###

Molecular target: HoblOBP4 (Holotrichia oblita, UniProt G9BWQ8)
Test: biochemical
Type: binding
Experimental: N-phenyl-1-naphthylamine (1-NPN) was selected as a probe to measure the affinity of the 1-NPN fluorescent ligand to proteins. A 1-cm light path quartz cuvette was used, and the fluorescence spectra were recorded on a Lengguang 970 CRT spectrofluorimeter (Shanghai Jingmi, China) at room temperature in a right angle configuration. […] 1-NPN was excited at 337 nm and the emission spectra were recorded between 350 and 550 nm. Spectra were recorded using high-speed scanning. […]
What pIC50 was measured for each of the following?
Remember, pIC50 is on a log scale: it is -log10 of the molar concentration.

Query string: Test system HoblOBP4 (Holotrichia oblita, UniProt G9BWQ8); read-out pIC50; what value for `CC(C)=CCC/C(C)=C/CO` ?
Result string: 4.80

Query string: pIC50 of `CC1=CC[C@@H](C(C)(C)O)CC1` on HoblOBP4 (Holotrichia oblita, UniProt G9BWQ8)?
Result string: 4.45

Query string: Lab note: need pIC50 with HoblOBP4 (Holotrichia oblita, UniProt G9BWQ8) for entry `O=Cc1ccccc1` , please look it up.
Result string: 4.77

Query string: Give the reported pIC50 for `CC(=O)CCC=C(C)C` (system: HoblOBP4 (Holotrichia oblita, UniProt G9BWQ8)).
Result string: 4.49

Query string: Can you look up pIC50 on HoblOBP4 (Holotrichia oblita, UniProt G9BWQ8) for `CC(=O)/C=C/C1=C(C)CCCC1(C)C` ?
Result string: 4.82

Query string: Item: C=C[C@](C)(O)CCC=C(C)C [R-(-)-Linalool] Test system: HoblOBP4 (Holotrichia oblita, UniProt G9BWQ8) Read-out: pIC50 Value: ?
Result string: 4.70
